Just for reference, PubChem BioAssay (NCI) is where these values come from.

# Test system: COLO 205 colon
# methodSummary: NCI tumour cell line growth inhibition, 48 h; in the data active means GI50 below about 0.43 µM; inactive means the rest
Outcomes: y for active, n for inactive

- Oc1cn(-c2ccc(Cl)cc2)nc1-c1n[nH]c(=S)n1-c1ccc(F)cc1: n
- NC1=NC(c2ccccc2Cl)c2c(n[nH]c2N)N1 (centres undefined): n
- OCCNc1nc2ccccc2c2[nH]c3ccccc3c12: y
- CCOC(=O)c1cn(C)c2c(OC)c3ccccc3c(OC)c2c1=O: n
- CN(C)CCCOc1ccc(NC2=C(Cl)C(=O)C(Nc3ccc(OCCCN(C)C)cc3)=C(Cl)C2=O)cc1: y
- O=C(CI)NC(=O)NC(=O)NCc1ccccc1: n
- CCOC(=O)[C@@H](C)C[C@H](Cc1ccccc1)NC(=O)c1csc([C@@H](C[C@H](C(C)C)N(C)C(=O)CNC(=O)[C@H]2CCCCN2C)OC(C)=O)n1: n
- COc1cc([C@@H]2c3cc4c(cc3[C@H](SC(=N)N)[C@H]3COC(=O)[C@H]23)OCO4)cc(OC)c1OC: y
- COC(=O)[C@]12CC[C@@H](C)[C@H](C)[C@@H]1C1=CC[C@@H]3[C@@]4(C)C(C=O)=C[C@@](C)(COS(C)(=O)=O)C4=CC[C@@]3(C)[C@]1(C)CC2: y
- N#CN1CC[C@H](C(=O)Nc2ncc(-c3ccccc3)s2)C1: y
- O=C(Nc1ccc(-n2cc(-c3ccncc3)c(-c3ccc(Cl)c(O)c3)n2)cc1)c1cc(C(F)(F)F)cc(C(F)(F)F)c1: n
- C/C(=C/CCC(C)[C@@H]1CC[C@]2(C)C3=C(CC[C@@]12C)[C@@]1(C)CCC(=O)C(C)(C)[C@@H]1CC3)C(=O)O (some centres undefined): n
- COc1cccc(-c2cc(=O)c3cc(N4CCN(C)CC4)ccc3[nH]2)c1: n
- O=C(Nc1nc2ccc(S(=O)(=O)Nc3ccc(C4(C(F)(F)F)CC4)cc3)cc2[nH]1)c1cnccn1: n

* * *

# Tested on: SF-295 CNS
# methodSummary: NCI tumour cell line growth inhibition, 48 h; in the data active = GI50 below about 0.43 µM; inactive = the rest
Outcome codes: 1 = active, -1 = inactive

* O=C(Nc1ccc(-n2cc(-c3ccncc3)c(-c3ccc(O)c(Cl)c3)n2)cc1)Nc1cc(C(F)(F)F)cc(C(F)(F)F)c1 | -1
* COc1ccc(-c2cnc(-c3ccncc3-c3cccc(OC)c3)o2)cc1 | 1
* O=C1Nc2ccc(-c3cccnc3)cc2/C1=C/c1cc(Br)c(O)c(Br)c1 | -1
* O=C(CCCCN1CCN(CCCCC(=O)Nc2ccccc2C#C/C=C\C#Cc2ccccc2C(F)(F)F)CC1)Nc1ccccc1C#C/C=C\C#Cc1ccccc1C(F)(F)F | -1
* COc1cc([C@@H]2c3cc4c(cc3[C@H](SC(=N)N)[C@H]3COC(=O)[C@H]23)OCO4)cc(OC)c1OC | 1
* CC(=O)Nc1cccc(C#Cc2cncnc2Nc2ccc(OCc3cccc(F)c3)c(Cl)c2)c1 | -1
* N#Cc1cc(F)cc(Oc2ccc(S(=O)(=O)C(F)F)c3c2CC(F)(F)[C@H]3O)c1 | -1
* NC(=O)c1nc(-c2c(F)cccc2Cl)oc1Nc1ccc(C(=O)N2CCOCC2)cc1 | -1
* COc1cccc(-c2cc(=O)c3cc(N4CCN(C)CC4)ccc3[nH]2)c1 | -1
* CN(C)CCCOc1ccc(NC2=C(Cl)C(=O)C(Nc3ccc(OCCCN(C)C)cc3)=C(Cl)C2=O)cc1 | -1
* CC[n+]1c(-c2ccccc2)c2cc(N)ccc2c2ccc(N)cc21 | -1
* CCOC(=O)c1cn(C)c2c(OC)c3ccccc3c(OC)c2c1=O | -1
* C/C(=N\NC(=S)N1CCC1)c1ccccn1 | 1
